target: P2Y purinoceptor 2 (Homo sapiens, UniProt P41231); experiment: Agonist activity at P2Y2 receptor expressed in human 1321 cells by calcium mobilization assay
Sequence (P41231 whole entry): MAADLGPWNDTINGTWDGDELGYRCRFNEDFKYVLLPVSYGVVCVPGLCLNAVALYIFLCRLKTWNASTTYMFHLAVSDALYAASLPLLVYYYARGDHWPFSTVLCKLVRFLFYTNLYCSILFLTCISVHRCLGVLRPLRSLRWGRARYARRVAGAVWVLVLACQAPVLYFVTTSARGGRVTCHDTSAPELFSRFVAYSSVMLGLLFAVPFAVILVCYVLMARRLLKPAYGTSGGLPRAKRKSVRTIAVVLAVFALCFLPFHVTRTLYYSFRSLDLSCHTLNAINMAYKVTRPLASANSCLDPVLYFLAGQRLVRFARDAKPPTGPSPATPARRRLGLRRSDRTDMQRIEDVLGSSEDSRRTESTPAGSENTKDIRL
Rule: EC50 below 100 nM gives True, anything at or above gives False.

These recorded examples may help you get a feel for the data.
INSERT INTO measurements (compound, target_or_system, discrete_label) VALUES
  ('CCCCCCCC1O[C@@H]2[C@H](O1)[C@@H](COP(=O)(O)OP(=O)(O)OP(=O)(O)OP(=O)(O)OC[C@@H]1O[C@H](n3ccc(=O)[nH]c3=O)[C@@H](O)[C@H]1O)O[C@H]2n1ccc(=O)[nH]c1=O (some centres not stated)', 'P2Y purinoceptor 2 (Homo sapiens, UniProt P41231)', 'False'),
  ('CNc1ccccc1C(=O)O[C@H]1[C@@H](O)[C@H](n2ccc(=O)[nH]c2=O)O[C@@H]1COP(=O)(O)OP(=O)(O)OP(=O)(O)OP(=O)(O)OC[C@@H]1O[C@H](n2ccc(=O)[nH]c2=O)[C@@H](OC(=O)c2ccccc2NC)[C@H]1O', 'P2Y purinoceptor 2 (Homo sapiens, UniProt P41231)', 'False');

Given Nc1ccn([C@@H]2O[C@H](COP(=O)(O)OP(=O)(O)OP(=O)(O)OP(=O)(O)OC[C@@H]3O[C@H](n4ccc(=O)[nH]c4=O)[C@@H](O)[C@H]3O)[C@H]3OC(Cc4ccccc4)O[C@H]32)c(=O)n1 (some centres not stated) , is recorded EC50 strictly lower than 100 nM?
False

Given O=C(Nc1ccccc1)Nc1ncnc2c1ncn2[C@@H]1O[C@H](COP(=O)(O)OP(=O)(O)O)[C@H]2O[C@@H](Cc3ccccc3)O[C@H]21 , is recorded EC50 strictly lower than 100 nM?
False

Given Nc1ncnc2c1ncn2[C@@H]1O[C@H](COP(=O)(O)OP(=O)(O)OP(=O)(O)OP(=O)(O)OC[C@@H]2O[C@H](n3cnc4c(N)ncnc43)[C@@H](O)[C@H]2O)[C@@H](O)[C@H]1O , is recorded EC50 strictly lower than 100 nM?
True

Given O=c1ccn([C@@H]2O[C@H](COP(=O)(O)OP(=O)(O)OP(=O)(O)OP(=O)(O)OC[C@@H]3O[C@H](n4ccc(=O)[nH]c4=O)[C@H]4OC(Cc5ccccc5)O[C@H]43)[C@H]3OC(Cc4ccccc4)O[C@H]32)c(=O)[nH]1 (some centres not stated) , is recorded EC50 strictly lower than 100 nM?
False

Given O=C(Nc1ccccc1)Nc1ncnc2c1ncn2[C@@H]1O[C@H](COP(=O)(O)OP(=O)(O)O)[C@@H](O)[C@H]1O , is recorded EC50 strictly lower than 100 nM?
False

Given O=c1ccn([C@@H]2O[C@H](COP(=O)(O)OP(=O)(O)OP(=O)(O)OP(=O)(O)OC[C@@H]3O[C@H](n4ccc(=O)[nH]c4=O)[C@@H](O)[C@H]3O)[C@H]3OC(C#Cc4ccccc4)O[C@H]32)c(=O)[nH]1 (stereo in doubt; 26) , is recorded EC50 strictly lower than 100 nM?
True

----------
biological target: P2Y purinoceptor 1 (Homo sapiens, UniProt P47900); experiment: Agonist activity at human recombinant P2Y1 receptor expressed in human 1321 cells at 100 uM by calcium mobilization assay; assay type: functional, cell-based
Sequence (P47900 whole entry): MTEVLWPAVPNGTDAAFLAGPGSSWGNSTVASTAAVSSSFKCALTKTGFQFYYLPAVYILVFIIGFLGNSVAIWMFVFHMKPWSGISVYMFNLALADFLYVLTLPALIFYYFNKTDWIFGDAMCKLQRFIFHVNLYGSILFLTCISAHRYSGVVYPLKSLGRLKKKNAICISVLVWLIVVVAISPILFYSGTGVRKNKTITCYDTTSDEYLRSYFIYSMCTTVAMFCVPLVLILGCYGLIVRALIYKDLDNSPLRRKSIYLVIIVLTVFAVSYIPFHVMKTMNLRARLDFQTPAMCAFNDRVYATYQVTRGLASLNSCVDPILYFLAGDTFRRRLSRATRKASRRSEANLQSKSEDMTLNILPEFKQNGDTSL
The source made the active and inactive calls. The calls are words filed in the database; no cut-off is given here.
quantity.kind: Activity

Known results for molecules:
INSERT INTO measurements (molecule, value_measured) VALUES
  ('CCCC1O[C@@H]2[C@H](O1)[C@@H](COP(=O)(O)OP(=O)(O)OP(=O)(O)OP(=O)(O)OC[C@@H]1O[C@H](n3ccc(=O)[nH]c3=O)[C@@H](O)[C@H]1O)O[C@H]2n1ccc(=O)[nH]c1=O (stereo not given in full)', 'inactive'),
  ('O=c1ccn([C@@H]2O[C@H](COP(=O)(O)OP(=O)(O)OP(=O)(O)OP(=O)(O)OC[C@@H]3O[C@H](n4ccc(=O)[nH]c4=O)[C@@H](O)[C@H]3O)[C@@H](O)[C@H]2O)c(=O)[nH]1', 'inactive'),
  ('CNc1ccccc1C(=O)O[C@H]1[C@@H](O)[C@H](COP(=O)(O)OP(=O)(O)OP(=O)(O)OP(=O)(O)OC[C@H]2O[C@@H](n3ccc(=O)[nH]c3=O)[C@H](O)[C@@H]2O)O[C@@H]1n1ccc(=O)[nH]c1=O', 'inactive'),
  ('O=C(Nc1ncnc2c1ncn2[C@@H]1O[C@H](COP(=O)(O)O)C2OC(Cc3ccccc3)OC21)NC1CCCC1 (single isomer, unassigned)', 'inactive');

Request: Activity, test system P2Y purinoceptor 1 (Homo sapiens, UniProt P47900), entry O=C(O[C@@H]1[C@H](OC(=O)c2ccccc2)[C@@H](n2ccc(=O)[nH]c2=O)O[C@H]1COP(=O)(O)OP(=O)(O)OP(=O)(O)OP(=O)(O)OC[C@H]1O[C@@H](n2ccc(=O)[nH]c2=O)[C@H](OC(=O)c2ccccc2)[C@@H]1OC(=O)c1ccccc1)c1ccccc1
inactive

----------
molecular target: P2Y purinoceptor 1 (Homo sapiens, UniProt P47900); experiment: Agonist at human recombinant P2Y1 receptor expressed in human 1321 cells by calcium mobilization assay
quantity.kind: pEC50
FYI, pEC50 means -log10 of a concentration in mol per litre.

INSERT INTO results (smiles_data, target_or_system, quantity_kind, value_measured) VALUES
  ('Nc1ncnc2c1ncn2[C@@H]1O[C@H](COP(=O)(O)OP(=O)(O)OP(=O)(O)OP(=O)(O)OC[C@@H]2O[C@H](n3cnc4c(N)ncnc43)[C@@H](O)[C@H]2O)[C@@H](O)[C@H]1O', 'P2Y purinoceptor 1 (Homo sapiens, UniProt P47900)', 'pEC50', 6.37),
  ('O=C(Nc1ccccc1)Nc1ncnc2c1ncn2[C@@H]1O[C@H](COP(=O)(O)OP(=O)(O)O)[C@@H](O)[C@H]1O', 'P2Y purinoceptor 1 (Homo sapiens, UniProt P47900)', 'pEC50', 5.58);

Next, consider the following compound.
Form field: reported pEC50 of Nc1ncnc2c1ncn2[C@@H]1O[C@H](COP(=O)(O)OP(=O)(O)O)[C@H]2O[C@@H](Cc3ccccc3)O[C@H]21
5.36

----------
molecular target: P2Y purinoceptor 1 (Homo sapiens); experiment: Agonist activity at human recombinant P2Y1 receptor expressed in human 1321 cells at 100 uM by calcium mobilization assay; format: functional, cell-based
quantity.kind: Activity

Form field: reported Activity of O=C(Nc1ccc(F)cc1)Nc1ccn([C@@H]2O[C@H](COP(=O)(O)OP(=O)(O)OP(=O)(O)OP(=O)(O)OC[C@@H]3O[C@H](n4ccc(=O)[nH]c4=O)[C@@H](O)[C@H]3O)[C@@H](O)[C@H]2O)c(=O)n1
> 5%

----------
biological target: UniProt:P41231; experiment: Agonist activity at P2Y2 receptor expressed in human 1321 cells at 100 uM by calcium mobilization assay; assay type: functional, cell-based
Calls of active or inactive are those of the source. The calls are words filed in the database; no cut-off is given here.
quantity.kind: Activity

INSERT INTO results (compound, target_or_system, quantity_kind, value_measured) VALUES
  ('O=C(Nc1ccccc1)Nc1ncnc2c1ncn2[C@@H]1O[C@H](COP(=O)(O)O)C2OC(C#Cc3ccccc3)OC21 (single isomer, unassigned)', 'UniProt:P41231', 'Activity', 'inactive'),
  ('O=c1ccn([C@@H]2O[C@H](COP(=O)(O)OP(=O)(O)OP(=O)(O)OC[C@@H]3O[C@H](n4ccc(=O)[nH]c4=O)[C@H]4OC(Cc5ccccc5)O[C@H]43)[C@H]3OC(Cc4ccccc4)O[C@H]32)c(=O)[nH]1 (stereo not given in full)', 'UniProt:P41231', 'Activity', 'inactive'),
  ('O=C(Nc1ccc(F)cc1)Nc1ccn([C@@H]2O[C@H](COP(=O)(O)OP(=O)(O)OP(=O)(O)OP(=O)(O)OC[C@@H]3O[C@H](n4ccc(=O)[nH]c4=O)[C@H]4O[C@@H](Cc5ccccc5)O[C@H]43)[C@H]3O[C@@H](Cc4ccccc4)O[C@H]32)c(=O)n1', 'UniProt:P41231', 'Activity', 'inactive'),
  ('Nc1ccn([C@@H]2O[C@H](COP(=O)(O)OP(=O)(O)OP(=O)(O)OP(=O)(O)OC[C@@H]3O[C@H](n4ccc(=O)[nH]c4=O)[C@H]4OC(Cc5ccccc5)O[C@H]43)[C@@H](O)[C@H]2O)c(=O)n1 (stereo not given in full)', 'UniProt:P41231', 'Activity', 'inactive');

Form field: reported Activity of CCNC(=O)Nc1ncnc2c1ncn2[C@@H]1O[C@H](COP(=O)(O)O)[C@H]2OC(c3ccccc3)O[C@H]21 (stereo not given in full)
inactive

----------
biological target: P2Y purinoceptor 2 (Homo sapiens); test: Agonist activity at P2Y2 receptor expressed in human 1321 cells by calcium mobilization assay
quantity.kind: pEC50
FYI, pEC50 means -log10 of a concentration in mol per litre.

INSERT INTO results (compound, quantity_kind, value_measured) VALUES
  ('O=c1ccn([C@@H]2O[C@H](COP(=O)(O)OP(=O)(O)OP(=O)(O)OP(=O)(O)OC[C@@H]3O[C@H](n4ccc(=O)[nH]c4=O)[C@@H](O)[C@H]3O)[C@@H]3OC(Cc4ccccc4)O[C@H]32)c(=O)[nH]1 (some centres undefined)', 'pEC50', 7.03),
  ('O=c1ccn([C@@H]2O[C@H](COP(=O)(O)OP(=O)(O)OP(=O)(O)OP(=O)(O)OC[C@@H]3O[C@H](n4ccc(=O)[nH]c4=O)[C@H]4OC(c5ccccc5)O[C@H]43)[C@H]3OC(c4ccccc4)O[C@H]32)c(=O)[nH]1 (some centres undefined)', 'pEC50', 5.51),
  ('O=c1ccn([C@@H]2O[C@H](COP(=O)(O)OP(=O)(O)OP(=O)(O)OP(=O)(O)OC[C@@H]3O[C@H](n4ccc(=O)[nH]c4=O)[C@@H](O)[C@H]3O)[C@@H]3OC(c4ccccc4)O[C@H]32)c(=O)[nH]1 (some centres undefined)', 'pEC50', 6.72);

Next, consider the following compound.
Form field: reported pEC50 of CNc1ccccc1C(=O)O[C@H]1[C@@H](O)[C@H](COP(=O)(O)OP(=O)(O)OP(=O)(O)OP(=O)(O)OC[C@H]2O[C@@H](n3ccc(=O)[nH]c3=O)[C@H](O)[C@@H]2O)O[C@@H]1n1ccc(=O)[nH]c1=O
6.89

FYI, the data here is from ChEMBL document CHEMBL1141591.
